test system: RERF-LC-KJ; assay: relative viability (nuclei count vs DMSO), 5 days (fraction); higher = more cells survive; conditions: first compound 2 µM
Catalogue of relative viability readings, one per entry.

compound | target-under-test | relative viability
Cc1csc(=NC2CCCCC2)n1/N=C/c1ccc(O)c(O)c1O [MIM1] + CC(=O)c1c(C)c2cnc(Nc3ccc(N4CCNCC4)cn3)nc2n(C2CCCC2)c1=O [Palbociclib] (partner 0.5 µM) | RERF-LC-KJ | 0.686
CN1CCN(CCOc2cc(OC3CCOCC3)c3c(Nc4c(Cl)ccc5c4OCO5)ncnc3c2)CC1 [Saracatinib] + Cc1nc(Nc2ncc(C(=O)Nc3c(C)cccc3Cl)s2)cc(N2CCN(CCO)CC2)n1 [Dasatinib] (partner 0.075 µM) | RERF-LC-KJ | 0.676
CN1CCN(CCOc2cc(OC3CCOCC3)c3c(Nc4c(Cl)ccc5c4OCO5)ncnc3c2)CC1 [Saracatinib] + O=C(c1cc(Cc2n[nH]c(=O)c3ccccc23)ccc1F)N1CCN(C(=O)C2CC2)CC1 [Olaparib] (partner 8 µM) | RERF-LC-KJ | 0.977
Cc1csc(=NC2CCCCC2)n1/N=C/c1ccc(O)c(O)c1O [MIM1] + O=C(c1cc(Cc2n[nH]c(=O)c3ccccc23)ccc1F)N1CCN(C(=O)C2CC2)CC1 [Olaparib] (partner 8 µM) | RERF-LC-KJ | 0.197
